system under test: Mitogen-activated protein kinase kinase kinase 7 (Homo sapiens) (UniProt O43318)
Sequence (O43318 whole entry): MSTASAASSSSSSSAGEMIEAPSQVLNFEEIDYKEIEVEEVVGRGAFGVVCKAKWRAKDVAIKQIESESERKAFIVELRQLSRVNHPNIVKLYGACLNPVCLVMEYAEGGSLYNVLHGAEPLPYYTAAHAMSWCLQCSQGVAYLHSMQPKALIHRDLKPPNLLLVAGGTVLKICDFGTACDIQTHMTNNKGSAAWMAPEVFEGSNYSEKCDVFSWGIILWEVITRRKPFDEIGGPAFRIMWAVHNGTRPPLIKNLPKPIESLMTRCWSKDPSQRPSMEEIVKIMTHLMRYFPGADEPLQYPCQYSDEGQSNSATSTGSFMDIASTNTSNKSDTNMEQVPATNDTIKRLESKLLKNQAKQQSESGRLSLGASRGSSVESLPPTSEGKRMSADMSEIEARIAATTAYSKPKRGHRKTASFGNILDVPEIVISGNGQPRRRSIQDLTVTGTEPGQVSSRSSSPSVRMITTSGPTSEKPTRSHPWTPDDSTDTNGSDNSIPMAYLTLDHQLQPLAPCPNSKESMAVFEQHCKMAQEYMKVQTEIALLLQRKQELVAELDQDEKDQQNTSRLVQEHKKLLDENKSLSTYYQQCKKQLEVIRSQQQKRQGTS
test conditions: at 1 µM
measurement kind: residual activity (%)
Your answer should be a plain number; it is taken to be in %.

Example results:
N#CCCc1ccc2c(c1)-c1[nH]c3ccc([N+](=O)[O-])cc3c1CC(=O)N2; 57
Oc1ccc(Nc2nc(-c3ccc(Cl)cc3)cs2)cc1; 112
CO[C@H]1C[C@@H]2CC[C@@H](C)[C@@](O)(O2)C(=O)C(=O)N2CCCC[C@H]2C(=O)O[C@H]([C@H](C)C[C@@H]2CC[C@@H](O)[C@H](OC)C2)CC(=O)[C@H](C)/C=C(\C)[C@@H](O)[C@@H](OC)C(=O)[C@H](C)C[C@H](C)/C=C/C=C/C=C/1C; 89

The record that follows has no residual activity shown yet.
Would you kindly share the measured residual activity for `Nc1ccc2ncnc(NCCc3ccc(Oc4ccccc4)cc3)c2c1` ?
92

---

system under test: Mitogen-activated protein kinase kinase kinase 9 (Homo sapiens)
test conditions: at 10 µM
measurement kind: residual activity (%)
Give the value, in units of %, as a plain number.

CC#CC(=O)Nc1cc2c(Nc3ccc(F)c(Cl)c3)ncnc2cn1; 100
C[C@@H](N)[C@H]1CC[C@H](C(=O)Nc2ccncc2)CC1; 101
Cc1nc(-c2ccccc2)c(-c2ccncc2)o1; 102
Oc1ccc(Nc2nc(-c3ccc(Cl)cc3)cs2)cc1; 36
c1ccc(-c2n[nH]cc2-c2ccnc3ccccc23)nc1; 103

Moving on to the next compound.
Can you look up residual activity on Mitogen-activated protein kinase kinase kinase 9 (Homo sapiens) for `CC(=O)c1ccc(N2CCOCC2)cc1O` ?
97

---

Measured residual activity of individual entries
system under test: Calcium/calmodulin-dependent protein kinase type 1 (Homo sapiens)
test conditions: at 1 µM
// units = %; emit number, no label

Examples with their reported residual activity follow.
NC(=O)c1ccc2[nH]c(-c3ccc(Oc4ccc(Cl)cc4)cc3)nc2c1; 94
O=C1Nc2cc(Br)ccc2/C1=C1/Nc2ccccc2/C1=N\O; 59

Fill in the blank: the reported residual activity of `CC[n+]1c(/C=C/N(C)c2ccccc2)n(-c2ccccc2)c2ccc(-c3nc4ccccc4s3)cc21` is ____.
107

---

Recorded residual activity, one value per entry.
system under test: Vascular endothelial growth factor receptor 1 (Homo sapiens)
test conditions: at 1 µM
Hi! Could you send only the number? It should be in %, unit omitted.

I would be grateful if you could share the reported residual activity for `COc1ccc(OC)c2c(=S)c3ccccc3[nH]c12` .
90

And the next one, `Oc1ccc(Nc2nc(-c3ccc(Cl)cc3)cs2)cc1` ?
99

How about this compound: `N#Cc1cnc2cnc(NCc3cccnc3)cc2c1Nc1ccc(F)c(Cl)c1`
14

---

system under test: Inhibitor of nuclear factor kappa-B kinase subunit alpha (Homo sapiens)
test conditions: at 1 µM
Each record here notes measured residual activity.
Respond with the bare value in %.

Solved cases (8 shown):
COc1ccc(OC)c2c(=S)c3ccccc3[nH]c12; 99
O=C1c2ccccc2-[n+]2ccc3c([nH]c4ccccc43)c21; 108
O=Nc1c(-c2c(O)[nH]c3ccccc23)[nH]c2ccccc12; 76
O=C1NC(=O)c2cc(Nc3ccc(F)cc3)c(Nc3ccc(F)cc3)cc21; 111
Oc1c2ccccc2c2c3c(cccc13)N=N2; 57
CO[C@H]1[C@@H](OC)C[C@H](C)[C@@H](OC)C2=CC(=O)C=C(NC(=O)/C(C)=C/C=C/[C@H](OC)[C@@H](OC(N)=O)/C(C)=C/[C@@H]1C)C2=O; 85
O=C(Nc1cccc(Nc2nccc(Nc3cccc(C(F)(F)F)c3)n2)c1)C1CC1; 113
Oc1ccc(-c2nc(-c3ccc(F)cc3)c(-c3ccncc3)[nH]2)cc1; 90

Would you mind telling me what residual activity value was observed for `Nc1n[nH]c2nnc(-c3c(-c4ccccc4)nn4ccccc34)cc12` ?
115

Proceed to `COc1cc2ncnc(N3CCN(C(=O)Nc4ccc(Oc5ccccc5)cc4)CC3)c2cc1OC`
103
